FYI, the data here is from patent US11214803B2.

Tested on: Yap1 mRNA
testMethodNotes: Dose-dependent inhibition of human Yap1 in A-431 cells (Example 7, 10,000 cells per well, RTS36584)
Format: cell-based
experimentalContext: Table 60, 15.6 nM, free uptake, A-431 cells 10,000 cells per well, 48 hours
Strand notation (5' to 3'): a small letter for the sugar, then the base; units joined by * are phosphorothioate-linked, units joined directly phosphodiester-linked; [ ] holds rarer units or linkages, { } end groups; capitals alone tell only the bases. k = constrained ethyl (cEt); [5mC] = 5-methylcytosine; d = 2'-deoxy (DNA)
Catalogue of Yap1 mRNA, % UTC values
recordedMetric: Yap1 mRNA, % UTC (% UTC)

958508 (kG*kA*kG*dA*dG*d[5mC]*dA*dG*dA*dT*dA*dA*dT*k[5mC]*kG*kA; antisense) [compound 958508] | 65
958753 (kT*kG*kT*dA*dT*dA*dT*dG*d[5mC]*d[5mC]*dG*dT*dT*k[5mC]*k[5mC]*k[5mC]; antisense) [compound 958753] | 72
958793 (k[5mC]*k[5mC]*kG*d[5mC]*dA*dT*dT*dG*d[5mC]*d[5mC]*dT*dA*dA*kG*kA*kG; antisense) [compound 958793] | 88
958523 (kT*kT*k[5mC]*d[5mC]*dA*dA*dT*d[5mC]*dG*dA*dG*dA*d[5mC]*kT*kT*kA; antisense) [compound 958523] | 86
958473 (kG*kT*k[5mC]*dT*d[5mC]*d[5mC]*dT*dT*dA*dG*dA*dT*d[5mC]*k[5mC]*kT*kT; antisense) [compound 958473] | 85
958718 (kG*kA*kA*d[5mC]*dA*d[5mC]*dT*dA*dT*dA*dG*d[5mC]*dT*kT*kG*kG; antisense) [compound 958718] | 104
958658 (kA*k[5mC]*kA*dG*dT*dA*dT*dA*dA*dT*dA*dT*d[5mC]*k[5mC]*kT*kA; antisense) [compound 958658] | 90
958593 (kG*kG*kT*d[5mC]*dA*dG*dT*dA*d[5mC]*dA*dG*dA*dG*kG*kG*k[5mC]; antisense) [compound 958593] | 99
958578 (k[5mC]*kT*kT*dA*dA*dT*d[5mC]*dT*dG*dT*dG*dG*d[5mC]*kT*kA*k[5mC]; antisense) [compound 958578] | 78
958648 (kG*kA*kA*dT*dA*d[5mC]*dT*dG*dA*dG*dT*d[5mC]*dA*kG*kG*kA; antisense) [compound 958648] | 80
958598 (k[5mC]*k[5mC]*k[5mC]*dA*dA*dT*dG*d[5mC]*dT*dA*d[5mC]*d[5mC]*d[5mC]*kA*kA*kT; antisense) [compound 958598] | 93
958588 (kG*kT*kG*dT*dA*d[5mC]*dT*dT*dA*dG*dG*dT*dG*kA*k[5mC]*kT; antisense) [compound 958588] | 93
958813 (kT*kT*kA*d[5mC]*dA*dG*dA*dG*dA*dG*dA*dT*dT*k[5mC]*kA*kT; antisense) [compound 958813] | 81
